Examples of compounds with documented IC50 follow.
target: rat P2X7 (Rattus norvegicus (Rat), UniProt Q64663)
Sequence (Q64663 whole entry): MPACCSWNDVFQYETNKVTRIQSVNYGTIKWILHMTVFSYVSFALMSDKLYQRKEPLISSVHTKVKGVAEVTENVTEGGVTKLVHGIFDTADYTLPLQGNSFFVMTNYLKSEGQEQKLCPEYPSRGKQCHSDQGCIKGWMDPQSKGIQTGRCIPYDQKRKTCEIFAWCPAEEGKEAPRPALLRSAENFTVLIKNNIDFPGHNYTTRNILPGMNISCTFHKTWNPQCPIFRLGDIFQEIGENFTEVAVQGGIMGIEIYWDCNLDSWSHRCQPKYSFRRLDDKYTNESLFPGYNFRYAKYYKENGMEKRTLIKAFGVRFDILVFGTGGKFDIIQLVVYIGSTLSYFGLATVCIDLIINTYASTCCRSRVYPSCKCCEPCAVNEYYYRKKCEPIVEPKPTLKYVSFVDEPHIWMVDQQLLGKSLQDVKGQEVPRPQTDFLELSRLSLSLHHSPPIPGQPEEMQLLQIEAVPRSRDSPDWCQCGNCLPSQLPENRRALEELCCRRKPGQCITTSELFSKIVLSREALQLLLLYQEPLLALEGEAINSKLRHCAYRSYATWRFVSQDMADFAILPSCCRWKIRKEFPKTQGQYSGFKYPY
protocol.description: Ca2+ flux (FLIPR) in 1321N1 cells expressing recombinant rat P2X7 channel
condition.notes: 250 μM BzATP

Consider the reported IC50 for these compounds:
* CC1c2ncn(-c3ccc(F)cn3)c2CCN1C(=O)c1ccc(F)cc1Cl (stereo not drawn) | > 10 µM
* Cn1nc2c(c1-c1ccncc1)CCN(C(=O)c1cccc(Cl)c1Cl)C2 | > 10 µM

Now consider the entry below.
Measured IC50, Cn1nccc1-n1nnc2c1CCN(C(=O)c1cccc(C(F)(F)F)c1Cl)C2 : > 10 µM

====

target: rat P2X7 (Rattus norvegicus (Rat), UniProt Q64663)
protocol.description: Ca2+ flux (FLIPR) in 1321N1 cells expressing recombinant rat P2X7 channel;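 note: Calcium-4 dye fluorescence change read 180 s after agonist addition, following 30 min cell preincubation with test compound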
condition.notes: 250 μM BzATP
pIC50: −log10 of the molar value.
Documented pIC50 across a set of molecules

# count of solved cases: 4
• CC1c2[nH]nc(C(F)(F)F)c2CCN1C(=O)c1cccc(C(F)(F)F)c1Cl (stereo not drawn) [Example 308] = < 5.00
• O=C(c1cccc(C(F)(F)F)c1Cl)N1CCc2c(-c3ncccn3)n[nH]c2C1 [Example 98] = 6.26
• Cn1nc2c(c1-c1cncnc1)CCN(C(=O)c1cccc(Cl)c1Cl)C2 [Example 329] = < 5.00
• Cc1cc(C)nc(-n2nnc3c2CCN(C(=O)c2cccc(C(F)(F)F)c2Cl)[C@@H]3C)n1 (single isomer, unassigned) [Example 181] = < 5.00

Now for the molecule whose pIC50 we want.
Record O=C(c1cccc(Cl)c1Cl)N1CCc2c(n[nH]c2-c2cncnc2)C1 [Example 330] ; system rat P2X7 (Rattus norvegicus (Rat), UniProt Q64663); pIC50 = < 5.00

====

target: P2X7 (Homo sapiens (Human))
Sequence (Q99572 whole entry): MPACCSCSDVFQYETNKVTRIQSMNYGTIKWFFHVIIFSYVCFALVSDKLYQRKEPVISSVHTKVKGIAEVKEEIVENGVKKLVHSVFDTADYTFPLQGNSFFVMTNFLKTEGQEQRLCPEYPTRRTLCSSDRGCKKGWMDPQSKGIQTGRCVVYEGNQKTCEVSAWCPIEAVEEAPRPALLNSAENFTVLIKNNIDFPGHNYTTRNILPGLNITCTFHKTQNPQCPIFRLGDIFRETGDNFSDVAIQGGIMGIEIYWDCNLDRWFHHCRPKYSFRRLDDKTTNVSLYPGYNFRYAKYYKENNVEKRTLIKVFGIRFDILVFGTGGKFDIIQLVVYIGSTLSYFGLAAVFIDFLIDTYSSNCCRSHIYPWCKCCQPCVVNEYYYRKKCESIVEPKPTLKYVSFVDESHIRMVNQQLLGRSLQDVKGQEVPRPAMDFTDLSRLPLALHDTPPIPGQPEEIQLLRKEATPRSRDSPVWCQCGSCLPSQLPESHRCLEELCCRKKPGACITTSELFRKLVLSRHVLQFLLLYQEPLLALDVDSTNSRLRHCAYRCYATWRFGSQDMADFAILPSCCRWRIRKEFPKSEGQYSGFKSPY
protocol.description: P2X7 antagonism in human PBMCs (LPS + Bz-ATP induced IL-1β release, ELISA)
Format: cell-based
condition.notes: compound 10 μM, LPS 30 ng/ml, Bz-ATP 0.5 mM
parameter.measured: PBMC 10 μM (% control)
Write the numeric value and follow it with the unit.

• CC1c2nnn(-c3ncc(F)cn3)c2CCN1C(=O)c1cccc(C(F)(F)F)c1Cl (stereo not shown) = 28.9 % control

Here is the next item to consider.
PBMC 10 μM (% control) for CC1c2nnn(-c3cncnc3)c2C=CN1C(=O)c1cccc(C(F)(F)F)c1Cl (stereo not shown) is 9.3 % control

====

target: UniProtKB Q99572
protocol.description: P2X7 antagonism in human PBMCs (LPS + Bz-ATP induced IL-1β release, ELISA);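 note: PBMCs from donor human blood, with a further 1.5 h incubation of the cells in the assay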
Assay type: cell-based
condition.notes: compound 1 μM, LPS 30 ng/ml, Bz-ATP 0.5 mM
parameter.measured: PBMC 1 μM (% control)
Enter the number, and then the unit.

- CCOC(=O)C1c2ncn(-c3ccccc3)c2CCN1C(=O)c1cccc(Cl)c1Cl (stereo not drawn): 39.2 % control

The reported value for O=C(c1ccc(F)cc1Cl)N1CCc2c(-c3ccccc3)n[nH]c2C1 in terms of PBMC 1 μM (% control) is 102.4 % control

PBMC 1 μM (% control) recorded for this molecule, CCC1c2ncn(-c3cnccn3)c2C=CN1C(=O)c1cccc(C(F)(F)F)c1Cl (stereo not drawn) , is 11.3 % control

Entry under test: O=C(c1cccc(C(F)(F)F)c1F)N1CCc2c(nnn2-c2ccccn2)C1 . Its PBMC 1 μM (% control) was 22.0 % control

Reported PBMC 1 μM (% control) ( O=C(c1cccc(C(F)(F)F)c1Cl)N1C=Cc2c(nnn2-c2cnccn2)C1c1ccccc1 (stereo not drawn) ) = 1.6 % control

Kindly note the recorded PBMC 1 μM (% control) for O=C(c1cccc(Cl)c1Cl)N1CCc2c(-c3ccccc3)n[nH]c2C1 , which is 9.2 % control
